These entries and their values trace back to the supplement of paper PMC12420376.

Test system: KURAMOCHI
Test: drug sensitivity score (DSS2) on cancer cell count; higher = more sensitive; extreme values may be limits of the assay
Conditions: co-cultured fibroblast: WI38; 72 h
Quantity measured: drug sensitivity score (DSS)
Value expressed in DSS; do not type the unit.

Examples with their reported drug sensitivity score follow.
                                   compound       quantity_measured   val
0  CCNCCS(=O)(=O)NC[C@@]1(c2ccccc2)SC(NC(=O)C(C)(C)C)=NN1C(=O)C(C)(C)C  drug sensitivity score  22.8
1  Cc1sc2c(c1C)C(c1ccc(Cl)cc1)=N[C@@H](CC(=O)Nc1ccc(O)cc1)c1nnc(C)n1-2  drug sensitivity score    13

Answer with the recorded drug sensitivity score of `CS(=O)(=O)c1ccc(-c2cnc(N)c(C(=O)Nc3ccccc3)n2)cc1` only. 0

Tell us which drug sensitivity score value is on record for `CN[C@@H](C)C(=O)N[C@H]1CN(C(=O)CC(C)C)CC[C@H]2CC[C@@H](C(=O)NC(c3ccccc3)c3ccccc3)N2C1=O` 0

For the compound `Cc1c(-c2c(-c3ccc(F)o3)sc3ncnc(O[C@H](Cc4ccccc4OCc4ccnn4CC(F)(F)F)C(=O)O)c23)ccc(OCCN2CCN(C)CC2)c1Cl` , give its reported drug sensitivity score. 0

Report measured drug sensitivity score; entry is Cn1cc(C2=Nc3cc(NC(=O)C(N)C4CCCCC4)cc4c3C2=CNNC4=O)cn1 (configuration not stated) 12.1

Please give measured drug sensitivity score of the following entry: `Cc1cc(C)c(CNC(=O)c2cc(-c3ccc(CN4CCOCC4)cc3)cc3c2cnn3C2CCCC2)c(=O)[nH]1` 0

====

Each entry below carries its reported drug sensitivity score.
System: KURAMOCHI
Assay: drug sensitivity score (DSS2) on cancer cell count; higher = more sensitive; extreme values may be limits of the assay
Conditions: co-cultured fibroblast: BJHTERT; 72 h
Field format: number, assumed DSS, no unit text.

Examples with their reported drug sensitivity score follow.
Compound	Target entity	Quantity measured	Val
Cc1cc(Nc2ncc(Cl)c(Nc3ccccc3S(=O)(=O)C(C)C)n2)c(OC(C)C)cc1C1CCNCC1	KURAMOCHI	drug sensitivity score	1.3
Cc1ccc(NC(=O)c2ccc(CN3CCN(C)CC3)cc2)cc1Nc1nc(-c2cccnc2)cs1	KURAMOCHI	drug sensitivity score	2
CN(C)CCCOc1ccc(-c2ccc3ncc4c(c3c2)n(C2CCOCC2)c(=O)n4C)cn1	KURAMOCHI	drug sensitivity score	2.5

Look up and report measured drug sensitivity score for this entry: `Cc1nc(Nc2n[nH]c3c2CN(C(=O)N[C@H](CN(C)C)c2ccccc2)C3(C)C)c2sccc2n1` 21

Could you please provide reported drug sensitivity score for `CC[C@]1(O)C[C@H]2CN(CCc3c([nH]c4ccccc34)[C@@](C(=O)OC)(c3cc4c(cc3OC)N(C=O)[C@H]3[C@@](O)(C(=O)OC)[C@H](OC(C)=O)[C@]5(CC)C=CCN6CC[C@]43[C@@H]65)C2)C1` ? Thanks! 7.5

Check the records and state drug sensitivity score for `Nc1cc(F)ccc1NC(=O)/C=C/c1cnn(C/C=C/c2ccccc2)c1` 3.9

Answer with the recorded drug sensitivity score for the compound listed here: `CO[C@H]1C[C@@H]2CC[C@@H](C)[C@@](O)(O2)C(=O)C(=O)N2CCCC[C@H]2C(=O)O[C@H]([C@H](C)C[C@@H]2CC[C@@H](OCCO)[C@H](OC)C2)CC(=O)[C@H](C)/C=C(\C)[C@@H](O)[C@@H](OC)C(=O)[C@H](C)C[C@H](C)/C=C/C=C/C=C/1C` 5.6

Determine from records and report drug sensitivity score for `CC1(C)OCCn2c1nc1c(N3CCOCC3)nc(-c3cnc(N)nc3)nc12` 12.7

Fill in drug sensitivity score for record COc1ccc(COc2cc3oc(=O)c4cc(C(C)O)ccc4c3cc2OC)cc1 (configuration not stated) 0

Retrieve drug sensitivity score measured for `CCN(CC)CCN(Cc1ccc(-c2ccc(C(F)(F)F)cc2)cc1)C(=O)Cn1c(SCc2ccc(F)cc2)nc(=O)c2c1CCC2` and print it. 0

Tell me measured drug sensitivity score for `CNC(=O)[C@@H](NC(=O)[C@H](CC(C)C)[C@H](O)C(=O)NO)C(C)(C)C` please. 0

Please give the documented drug sensitivity score of `Nc1nc2[nH]cnc2c(=S)[nH]1` 5.3

Identify the reported drug sensitivity score for the following entry. O=C(/C=C\n1cnc(-c2cc(C(F)(F)F)cc(C(F)(F)F)c2)n1)NNc1ccccn1 [Verdinexor] 8.4

Quote drug sensitivity score reported for `CNC(=O)c1cc(COc2nnc(Nc3ccc(Cl)cc3)c3ccoc23)ccn1` please. 0

Given the compound `CCNc1nc(Nc2cc(F)c(C(=O)N3CCOCC3)cc2OC)ncc1C(F)(F)F` , write its reported drug sensitivity score. 0

For Cn1nnc2c(C(N)=O)ncn2c1=O [Temozolomide] , write its drug sensitivity score. 0

Indicate the recorded drug sensitivity score value for this compound: `C/C=C1\NC(=O)[C@H]2CSSCC/C=C/[C@H](CC(=O)N[C@H](C(C)C)C(=O)N2)OC(=O)[C@H](C(C)C)NC1=O` 28

====

Test system: OVCAR8
Test: drug sensitivity score (DSS2) on cancer cell count; higher = more sensitive; extreme values may be limits of the assay
Conditions: co-cultured fibroblast: WI38; 72 h
Quantity measured: drug sensitivity score (DSS)
Provide the reading as a plain figure in DSS.

In [3]: df
Out[3]:
                                  structure       quantity_measured   val
0  O=C(O)c1ccc2c(c1)nc(Nc1cccc(Cl)c1)c1ccncc12  drug sensitivity score     0
1  CCCCCOC(=O)Nc1nc(=O)n([C@@H]2O[C@H](C)[C@@H](O)[C@H]2O)cc1F  drug sensitivity score   2.7
2  CN[C@@H](C)C(=O)N[C@H](C(=O)N1CCC[C@H]1c1nc(C(=O)c2ccc(F)cc2)cs1)C1CCCCC1  drug sensitivity score  27.7

Output drug sensitivity score of `O=C(Nc1nc2cccc(-c3ccc(CN4CCS(=O)(=O)CC4)cc3)n2n1)C1CC1` 1.3

====

System: OVCAR8
Test: drug sensitivity score (DSS2) on cancer cell count; higher = more sensitive; extreme values may be limits of the assay
Conditions: co-cultured fibroblast: WI38; 72 h
Is drug sensitivity score at least 4 DSS? Then T. If not, F.

Worked set:
Molecule	Class label
c1cn2cc(-c3ccc4cn[nH]c4c3)nc(Nc3ccc(N4CCOCC4)cc3)c2n1	F
Nc1cccc2c1CN(C1CCC(=O)NC1=O)C2=O (configuration not stated) [Lenalidomide]	F
O=C(Nc1c[nH]nc1-c1nc2ccc(CN3CCOCC3)cc2[nH]1)NC1CC1	T
Cc1ccc(Nc2nccc(N(C)c3ccc4c(C)n(C)nc4c3)n2)cc1S(N)(=O)=O	F
NC(=O)c1cccc2cn(-c3ccc([C@@H]4CCCNC4)cc3)nc12	T

Please find the next molecule below.
Does drug sensitivity score meet or surpass 4 DSS for `C=CC[C@@H]1/C=C(\C)C[C@H](C)C[C@H](OC)[C@H]2O[C@@](O)(C(=O)C(=O)N3CCCC[C@H]3C(=O)O[C@H](/C(C)=C/[C@@H]3CC[C@@H](O)[C@H](OC)C3)[C@H](C)[C@@H](O)CC1=O)[C@H](C)C[C@@H]2OC` ? F

====

Test system: KURAMOCHI
Assay: drug sensitivity score (DSS2) on cancer cell count; higher = more sensitive; extreme values may be limits of the assay
Conditions: co-cultured fibroblast: WI38; 72 h
Values of drug sensitivity score greater than or equal to 3 DSS map to Fulfilled; values below map to Not fulfilled.

Solved cases (3 shown):
In [3]: df
Out[3]:
                                   molecule  target_entity    class_label
0  COc1cc2c(cc1OC(C)C)[C@H](c1ccc(Cl)cc1)N(c1ccc(N(C)C[C@H]3CC[C@H](N4CCN(C)C(=O)C4)CC3)cc1)C(=O)C2      KURAMOCHI      Fulfilled
1  CC(=O)N(O)CCCCCNC(=O)CCC(=O)N(O)CCCCCNC(=O)CCC(=O)N(O)CCCCCN      KURAMOCHI      Fulfilled
2  COc1cc2c(N3CCN(C(=O)Nc4ccc(OC(C)C)cc4)CC3)ncnc2cc1OCCCN1CCCCC1      KURAMOCHI  Not fulfilled

Given the entry `Cc1[nH]nc(C(F)(F)F)c1Cc1sc2c(c1C(=O)N1C[C@](C)(O)CO1)c(=O)n(C)c(=O)n2C(C)C` , answer whether its drug sensitivity score meets or surpasses 3 DSS. Not fulfilled

Tell me whether drug sensitivity score is at least 3 DSS here: CC1(C)NC(=O)N(c2ccc([N+](=O)[O-])c(C(F)(F)F)c2)C1=O [Nilutamide] Fulfilled

Determine whether this molecule has drug sensitivity score no lower than 3 DSS: `COc1cc2nccc(Oc3ccc(NC(=O)Nc4cc(C)on4)c(Cl)c3)c2cc1OC` Fulfilled

Reported drug sensitivity score reaches at least 3 DSS for `CC1(C)CNc2cc(NC(=O)c3cccnc3NCc3ccncc3)ccc21` ? Not fulfilled
